Target: T1, human mpl receptor (human, UniProt P40238 26-635)
T1 sequence (looked up): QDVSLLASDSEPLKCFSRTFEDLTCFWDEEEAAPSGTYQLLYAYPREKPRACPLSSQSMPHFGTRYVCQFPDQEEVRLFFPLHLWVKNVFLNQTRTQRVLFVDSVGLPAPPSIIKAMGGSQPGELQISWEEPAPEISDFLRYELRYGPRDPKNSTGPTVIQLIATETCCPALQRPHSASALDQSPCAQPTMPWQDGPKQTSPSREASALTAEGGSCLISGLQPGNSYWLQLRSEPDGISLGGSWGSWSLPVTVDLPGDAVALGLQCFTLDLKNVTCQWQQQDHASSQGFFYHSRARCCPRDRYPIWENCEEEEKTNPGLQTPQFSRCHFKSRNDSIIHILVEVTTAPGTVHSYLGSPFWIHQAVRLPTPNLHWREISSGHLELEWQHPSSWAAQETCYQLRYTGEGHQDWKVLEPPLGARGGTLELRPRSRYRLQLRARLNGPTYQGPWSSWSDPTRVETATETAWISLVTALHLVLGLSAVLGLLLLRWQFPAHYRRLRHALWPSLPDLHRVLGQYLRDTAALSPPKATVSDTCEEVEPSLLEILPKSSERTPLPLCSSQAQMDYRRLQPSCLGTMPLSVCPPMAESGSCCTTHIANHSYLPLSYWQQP
Experiment: cell-based or functional assay
QUANTITY: EC50 on 32Dcl23/Mpl (pM)
Output spec: scalar in pM, unitless text.

Solved entries (count: 2):
{"BINDER": "Fc-Loop (Asym) (SEQ ID NO: 35) (Fc fusion) MDKTHTCPPCPAPELLGGPSVFLFPPKPKDTLMISRTPEVTCVVVDVSHEDPEVKFNWYVDGVEVHNAKTKPREEQYNSTYRVVSVLTVLHQDWLNGKEYKCKVSNKALPAPIEKTISKAKGQPREPQVYTLPPSRDELGGGGQGCSSGGPTLREWQQCRRMQHSGGTKNQVSLTCLVKGFYPSDIAVEWESNGQPENNYKTTPPVLDSDGSFFLYSKLTVDKSRWQQGNVFSCSVMHEALHNHYTQKSLSLSPGK", "EC50 on 32Dcl23/Mpl / pM": 13}
{"BINDER": "Fc-Loop (Sym) (SEQ ID NO: 35) (Fc fusion) MDKTHTCPPCPAPELLGGPSVFLFPPKPKDTLMISRTPEVTCVVVDVSHEDPEVKFNWYVDGVEVHNAKTKPREEQYNSTYRVVSVLTVLHQDWLNGKEYKCKVSNKALPAPIEKTISKAKGQPREPQVYTLPPSRDELGGQGCSSGGPTLREWQQCRRMQHSGGTKNQVSLTCLVKGFYPSDIAVEWESNGQPENNYKTTPPVLDSDGSFFLYSKLTVDKSRWQQGNVFSCSVMHEALHNHYTQKSLSLSPGK", "EC50 on 32Dcl23/Mpl / pM": 15}

Could you now consider this next binder?
Look up and state reported EC50 on 32Dcl23/Mpl for Fc-Loop (Sym) (SEQ ID NO: 6) (Fc fusion) MDKTHTCPPCPAPELLGGPSVFLFPPKPKDTLMISRTPEVTCVVVDVSHEDPEVKFNWYVDGVEVHNAKTKPREEQYNSTYRVVSVLTVLHQDWLNGKEYKCKVSNKALPAPIEKTISKAKGQPREPQVYTLPPSRDELGGQGCSSGGPTLREWQQCRRAQHSGGTKNQVSLTCLVKGFYPSDIAVEWESNGQPENNYKTTPPVLDSDGSFFLYSKLTVDKSRWQQGNVFSCSVMHEALHNHYTQKSLSLSPGK
12
